Collected switch fluorescence ratio values appear next to each entry.
System: ATP;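 also: ATP exposure 15 min at 22 °C before imaging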
procedure summary: switch fluorescence ratio, 500 uM ATP over buffer (Cy3 cluster intensity, sum of 5 cycles each) (fold (ratio)); higher = stronger signal-on switching upon ATP binding; sequences stand for … in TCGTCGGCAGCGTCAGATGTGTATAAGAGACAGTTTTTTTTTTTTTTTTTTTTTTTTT…TC
study conditions: aptamer strand: ATP DNA aptamer (quencher-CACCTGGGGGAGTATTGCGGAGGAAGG + anchor), 100 nM annealed; ATP concentration: 500 uM
Respond with the number and no other words.

Previously resolved entries follow.
query sequence: AGAGATATTT
switch fluorescence ratio: 0.992
--
query sequence: GGTGCTGGAG
switch fluorescence ratio: 0.98
--
query sequence: GGATTTTGGA
switch fluorescence ratio: 1
--
query sequence: TTTCATCTTG
switch fluorescence ratio: 0.971
--
query sequence: GTGGCTTTAT
switch fluorescence ratio: 1.01

Quick note, switch fluorescence ratio for GGACGGTCTT landed at 1.01

Lab note: measured switch fluorescence ratio of ACCGAGCAAG was 4.12

Value of switch fluorescence ratio reported for the sequence GGATTACCCT is 1.04

GET /value?item= TTTGTGCCTC &field=switch fluorescence ratio returns 0.953

Looking up GAACATTTCG , I found its switch fluorescence ratio recorded as 1

Record AGGAAAACAG . Reported switch fluorescence ratio: 1.03

What the record says about ATCAGAGGTG : switch fluorescence ratio is 1.14

Documented switch fluorescence ratio of ATGGTAATGG : 1.02

# switch fluorescence ratio of GGCGTAAAGT = 1.02

Form field switch fluorescence ratio, entry CCAAGGCGGG : 1.04

Data point: CCGGATTATA ; switch fluorescence ratio = 1.05

The measured switch fluorescence ratio associated with TCGTCAGCTG reads 1.02

response.value for TACGTTATTT (field: switch fluorescence ratio) = 1.16

Data point: GCGATAGTGG ; switch fluorescence ratio = 0.974

The reported value for CTGCAAGACA in terms of switch fluorescence ratio is 2.64

---

Tested on: ATP;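 also: ATP exposure 15 min at 22 °C before imaging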
procedure summary: switch fluorescence ratio, 500 uM ATP over buffer (Cy3 cluster intensity, sum of 5 cycles each) (fold (ratio)); higher = stronger signal-on switching upon ATP binding; sequences stand for … in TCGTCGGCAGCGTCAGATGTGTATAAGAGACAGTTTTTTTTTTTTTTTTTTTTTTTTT…TC
study conditions: aptamer strand: ATP DNA aptamer (quencher-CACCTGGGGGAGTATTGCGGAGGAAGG + anchor), 100 nM annealed; ATP concentration: 500 uM
# if value of switch fluorescence ratio reaches 1, tag Fulfilled; if it stays below, tag Not fulfilled

Observe how each entry below is paired with its result.
query sequence: CCGCTACTGT
qualitative label: Fulfilled
--
query sequence: TCATAGGTAC
qualitative label: Fulfilled
--
query sequence: TACTTACTAG
qualitative label: Fulfilled
--
query sequence: GTGGGGGTTT
qualitative label: Fulfilled
--
query sequence: TAATGTGGGT
qualitative label: Not fulfilled
--
query sequence: ACCGCTTACG
qualitative label: Fulfilled

Req: Please check the record GTGTTTATCG and state if its switch fluorescence ratio is at or above 1.
Resp: Not fulfilled

Req: Could you verify whether the entry AGAGTATTGC shows switch fluorescence ratio of no less than 1?
Resp: Fulfilled

Req: I'd appreciate it if you could say whether GCTATCACCA has switch fluorescence ratio at least equal to 1.
Resp: Fulfilled

Req: Does the sequence GATCCTGAGG have recorded switch fluorescence ratio that is 1 or more?
Resp: Not fulfilled

---

Tested on: ATP;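 also: ATP exposure 15 min at 22 °C before imaging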
procedure summary: switch fluorescence ratio, 500 uM ATP over buffer (Cy3 cluster intensity, sum of 5 cycles each) (fold (ratio)); higher = stronger signal-on switching upon ATP binding; sequences stand for … in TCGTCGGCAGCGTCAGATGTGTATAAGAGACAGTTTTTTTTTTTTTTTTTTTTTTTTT…TC
study conditions: aptamer strand: ATP DNA aptamer (quencher-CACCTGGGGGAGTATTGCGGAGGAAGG + anchor), 100 nM annealed; ATP concentration: 500 uM
Attribute: switch fluorescence ratio
Kindly provide the number alone.

Here are 3 sequences together with their reported answers.
query sequence: AGGAGTCGTT
switch fluorescence ratio: 1.02

query sequence: TCCTTGAGTG
switch fluorescence ratio: 1.03

query sequence: TAAAAGGAAT
switch fluorescence ratio: 0.993

We next turn to a different sequence, shown below.
Note to self: switch fluorescence ratio of ACTGGGTGAG with ATP was 1.02

---

Tested on: ATP;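 also: ATP exposure 15 min at 22 °C before imaging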
procedure summary: switch fluorescence ratio, 500 uM ATP over buffer (Cy3 cluster intensity, sum of 5 cycles each) (fold (ratio)); higher = stronger signal-on switching upon ATP binding; sequences stand for … in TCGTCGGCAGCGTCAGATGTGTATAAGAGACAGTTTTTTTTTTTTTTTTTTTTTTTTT…TC
study conditions: aptamer strand: ATP DNA aptamer (quencher-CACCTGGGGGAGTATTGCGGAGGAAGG + anchor), 100 nM annealed; ATP concentration: 500 uM
Entry flag: condition met if switch fluorescence ratio reaches 1; condition not met if it does not.

Below, 2 sequences whose answers are already recorded.
query sequence: CTCATGACGG
qualitative label: condition met

query sequence: GAGTAATGCG
qualitative label: condition not met

Req: Answer whether switch fluorescence ratio of TCAAAGGGGT is greater than or equal to 1.
Resp: condition met

Req: Decide: is the reported value of switch fluorescence ratio for CAGAACAGCT equal to or greater than 1?
Resp: condition met

Req: In plain terms: is recorded switch fluorescence ratio at least 1 for AGAAGGGATT ?
Resp: condition met

---

Tested on: ATP;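 also: ATP exposure 15 min at 22 °C before imaging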
procedure summary: switch fluorescence ratio, 500 uM ATP over buffer (Cy3 cluster intensity, sum of 5 cycles each) (fold (ratio)); higher = stronger signal-on switching upon ATP binding; sequences stand for … in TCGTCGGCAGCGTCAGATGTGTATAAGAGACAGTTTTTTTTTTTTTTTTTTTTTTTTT…TC
study conditions: aptamer strand: ATP DNA aptamer (quencher-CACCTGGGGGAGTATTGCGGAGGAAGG + anchor), 100 nM annealed; ATP concentration: 500 uM
quantity name: switch fluorescence ratio
Write the number on its own, no unit after it.

Reference set (5 entries):
query sequence: TTGGCGTATC
switch fluorescence ratio: 0.946
--
query sequence: TGGTATTTTG
switch fluorescence ratio: 0.977
--
query sequence: GGTGAGGGTA
switch fluorescence ratio: 0.991
--
query sequence: GGAGGTAATT
switch fluorescence ratio: 0.981
--
query sequence: GGGATTTGGT
switch fluorescence ratio: 1.02

switch fluorescence ratio reading for GGTGGGGGGG : 1

Kindly note the recorded switch fluorescence ratio for GGATGTGAAA , which is 0.985

Form: sequence = TCCCGAGGGG ; switch fluorescence ratio = 1.08

Reported switch fluorescence ratio for TTGGTTATGC was 0.998

switch fluorescence ratio measured on TTTAGCAGGT = 1.05

---

Test system: ATP;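 also: ATP exposure 15 min at 22 °C before imaging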
procedure summary: switch fluorescence ratio, 500 uM ATP over buffer (Cy3 cluster intensity, sum of 5 cycles each) (fold (ratio)); higher = stronger signal-on switching upon ATP binding; sequences stand for … in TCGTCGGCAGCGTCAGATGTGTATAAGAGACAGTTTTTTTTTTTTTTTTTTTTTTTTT…TC
study conditions: aptamer strand: ATP DNA aptamer (quencher-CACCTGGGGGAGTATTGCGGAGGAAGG + anchor), 100 nM annealed; ATP concentration: 500 uM
# key: entry, value: switch fluorescence ratio

Some sequences with recorded switch fluorescence ratio:
query sequence: AATAAATGTA
study target: ATP;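 also: ATP exposure 15 min at 22 °C before imaging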
switch fluorescence ratio: 1.04

query sequence: TGTTTGTTTG
study target: ATP;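 also: ATP exposure 15 min at 22 °C before imaging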
switch fluorescence ratio: 1

query sequence: TTTCGCTATG
study target: ATP;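 also: ATP exposure 15 min at 22 °C before imaging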
switch fluorescence ratio: 1.04

query sequence: AGTATCTCTT
study target: ATP;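 also: ATP exposure 15 min at 22 °C before imaging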
switch fluorescence ratio: 1.02

query sequence: CGGGAACCTT
study target: ATP;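 also: ATP exposure 15 min at 22 °C before imaging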
switch fluorescence ratio: 1.28

query sequence: AAAGGAAAGG
study target: ATP;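 also: ATP exposure 15 min at 22 °C before imaging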
switch fluorescence ratio: 0.992

Query GGGGGGCGGC yields switch fluorescence ratio of 1.01

Note to self: switch fluorescence ratio recorded for GAGTGTGCGC was 1.02

What the record says about GGAAATGTTG : switch fluorescence ratio is 0.991

So for GACTAGGTTT , the logged switch fluorescence ratio turned out to be 1.04

For this sequence ( TTTGGCTTCT ), measured switch fluorescence ratio is 1.04

Kindly note the recorded switch fluorescence ratio for GCGGCGTGTC , which is 1.03

Value of measured switch fluorescence ratio for the entry CGTATAGGAT : 1.01

// sample TTTTTTTCCG , its switch fluorescence ratio was 1.01

Record summary for CATATACATT : reported switch fluorescence ratio = 1.06

Recorded switch fluorescence ratio (sequence TCATTCGGTG ): 1.05

---

Test system: ATP;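 also: ATP exposure 15 min at 22 °C before imaging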
procedure summary: switch fluorescence ratio, 500 uM ATP over buffer (Cy3 cluster intensity, sum of 5 cycles each) (fold (ratio)); higher = stronger signal-on switching upon ATP binding; sequences stand for … in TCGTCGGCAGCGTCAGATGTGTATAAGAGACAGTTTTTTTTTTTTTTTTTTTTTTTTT…TC
study conditions: aptamer strand: ATP DNA aptamer (quencher-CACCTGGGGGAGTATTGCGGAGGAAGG + anchor), 100 nM annealed; ATP concentration: 500 uM
quantity name: switch fluorescence ratio
Just the number, please, no unit attached.

Some entries whose results are on file:
query sequence: CAATTTCAGC
quantity name: switch fluorescence ratio
assay value: 0.999

query sequence: ATCTAATGCC
quantity name: switch fluorescence ratio
assay value: 1.01

query sequence: CTTGTTGATT
quantity name: switch fluorescence ratio
assay value: 1.01

query sequence: TGAGGGTAAG
quantity name: switch fluorescence ratio
assay value: 1.13

query sequence: GGGCACCAGG
quantity name: switch fluorescence ratio
assay value: 1.21

Sure, the documented switch fluorescence ratio for GGGGTGTGTG is 0.986

In plain terms, TTTAGTTTTG has a documented switch fluorescence ratio of 1.02
